molecular target: human PDE41 Dcatalytic domain (UniProt no. Q08499 [S380-L740]) (Homo sapiens (Human), UniProt Q08499); assay: PDE4 Assay (TR-FRET, FAM-cAMP cleavage); conditions: human PDE4D catalytic domain, cAMP / FAM-cAMP substrate, read-out: PDE4 IC50 range
Sequence (Q08499 380-740): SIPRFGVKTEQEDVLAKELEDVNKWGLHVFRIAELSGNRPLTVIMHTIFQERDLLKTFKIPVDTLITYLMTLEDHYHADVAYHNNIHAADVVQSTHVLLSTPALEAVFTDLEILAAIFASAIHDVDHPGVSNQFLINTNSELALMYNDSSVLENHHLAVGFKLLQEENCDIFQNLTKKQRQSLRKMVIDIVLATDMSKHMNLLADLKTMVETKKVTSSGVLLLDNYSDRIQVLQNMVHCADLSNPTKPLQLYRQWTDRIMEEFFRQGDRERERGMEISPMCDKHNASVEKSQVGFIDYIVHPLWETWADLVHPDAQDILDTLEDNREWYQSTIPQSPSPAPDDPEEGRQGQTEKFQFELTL
Listing of entries alongside the reported IC50.

>>> df
                                   molecule  datavalue
0  CCN(CCC1CCOCC1)c1nc2c(c(NC3CCOCC3)n1)[S@@+]([O-])CC2  < 0.01 µM

The recorded IC50 for CN(CCC1CCOCC1)c1nc2c(c(NC3CCCC3)n1)[S+]([O-])CC2 (centres unmarked) is < 0.01 µM

The recorded IC50 for CN(CCC1CCOCC1)c1nc2c(c(NC3(C)CCC3)n1)[S+]([O-])CC2 (centres unmarked) is 0.01 to 0.05 µM
